# experimental system: CDK20/CycT1 (Homo sapiens)
# Construct: purchased Reaction Biology Corp. (33PanQinase Activity Assay service)
# test description: CDK20 kinase activity assay (radiometric 33PanQinase)
# Assay type: biochemical
measurement label: IC50

>>> result("CN(C)CCNC(=O)c1cc(Nc2ncc3ccccc3n2)c[nH]1")
"> 6 µM"

###

# experimental system: CDK20/CycT1 (Homo sapiens, UniProt Q8IZL9)
# Construct: purchased Reaction Biology Corp. (33PanQinase Activity Assay service)
# Sequence (Q8IZL9 whole entry): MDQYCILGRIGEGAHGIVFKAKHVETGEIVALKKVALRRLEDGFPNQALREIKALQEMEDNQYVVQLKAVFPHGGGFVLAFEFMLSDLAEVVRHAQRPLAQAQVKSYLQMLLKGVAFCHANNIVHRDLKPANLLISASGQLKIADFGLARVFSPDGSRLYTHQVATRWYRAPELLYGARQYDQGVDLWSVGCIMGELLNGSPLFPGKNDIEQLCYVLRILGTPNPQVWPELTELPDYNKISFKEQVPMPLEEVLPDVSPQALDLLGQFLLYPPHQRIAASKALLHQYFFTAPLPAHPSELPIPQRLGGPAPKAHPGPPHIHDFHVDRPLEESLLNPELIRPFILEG
# Sequence (O60563 whole entry partner): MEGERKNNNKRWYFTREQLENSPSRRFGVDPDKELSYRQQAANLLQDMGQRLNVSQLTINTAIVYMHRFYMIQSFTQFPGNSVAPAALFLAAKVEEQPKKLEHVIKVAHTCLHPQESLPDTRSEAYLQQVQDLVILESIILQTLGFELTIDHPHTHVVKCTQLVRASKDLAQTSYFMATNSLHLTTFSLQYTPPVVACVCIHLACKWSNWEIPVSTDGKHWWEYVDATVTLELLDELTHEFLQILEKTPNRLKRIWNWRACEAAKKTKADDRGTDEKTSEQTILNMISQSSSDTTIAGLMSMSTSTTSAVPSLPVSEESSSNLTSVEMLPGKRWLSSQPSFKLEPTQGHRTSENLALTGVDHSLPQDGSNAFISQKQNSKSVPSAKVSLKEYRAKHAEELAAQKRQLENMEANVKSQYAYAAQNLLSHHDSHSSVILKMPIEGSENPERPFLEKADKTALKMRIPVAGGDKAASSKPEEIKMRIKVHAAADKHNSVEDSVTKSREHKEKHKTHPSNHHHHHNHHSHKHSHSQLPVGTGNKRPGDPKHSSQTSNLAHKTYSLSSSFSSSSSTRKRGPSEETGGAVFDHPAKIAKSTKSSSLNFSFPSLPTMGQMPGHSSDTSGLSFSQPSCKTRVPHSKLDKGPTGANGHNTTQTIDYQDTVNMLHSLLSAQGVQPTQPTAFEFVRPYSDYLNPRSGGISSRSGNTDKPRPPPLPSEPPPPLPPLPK
# test description: CDK20 kinase activity assay (radiometric 33PanQinase)
# Format: biochemical
# experimental setup: CDK20 kinase activity assay; 1.0 μM ATP; values with SD from three independent experiments; read-out: CDK20/CycT1 IC50
Checkbox rule: IC50 lower than 4 µM = yes; IC50 not lower than 4 µM = no.

>>> category("CNC(=O)c1cccc(Nc2ncc3ccccc3n2)c1")
"no"
>>> category("CN1CCN(CCNC(=O)c2cc(Nc3ncc4ccccc4n3)c[nH]2)CC1")
"no"
>>> category("CNC(=O)c1cc(Nc2ncc3ccc(=O)n(C4CCCC4)c3n2)c[nH]1")
"yes"
>>> category("CNC(=O)c1cc(Nc2ncc3ccccc3n2)c[nH]1")
"no"
>>> category("CNC(=O)c1cc(Nc2ncc3ccc(-c4cn[nH]c4)cc3n2)c[nH]1")
"yes"

The measurements presented in this section are drawn from paper PMC9906638.
